test system: MDA-MB-468 breast; test: NCI tumour cell line growth inhibition, 48 h; in the data active means GI50 below about 0.43 µM; inactive means the rest
Valid outcomes are listed here; reply with one: active, inactive

Ask | Please state the recorded outcome for this molecule: Cn1cc(-c2nc(N)nnc2-c2c[nH]c3ccc(F)cc23)c2cc(Br)cnc21
Reply | active

Ask | Please state the recorded outcome for this molecule: C/C(=C(/c1ccc(O)cc1)c1ccc(OCCN2CCCC2)cc1)c1ccc(Cl)cc1
Reply | inactive

Ask | Please state the recorded outcome for this molecule: O=C(CSc1ccc(Cl)cc1)Nc1ccc(-c2nc3ccccc3s2)c(Cl)c1
Reply | inactive

Ask | Please state the recorded outcome for this molecule: O=C(/C=C/c1ccc(Cl)cc1)c1ccc(Nc2ccnc3cc(Cl)ccc23)cc1
Reply | inactive

Ask | Please state the recorded outcome for this molecule: CC[C@H](Nc1ncnc2nc[nH]c12)c1oc2ccccc2c(=O)c1-c1cccc(F)c1
Reply | inactive

Ask | Please state the recorded outcome for this molecule: C=C1NC(=O)C(C(C)CC)NC(=O)C2CSCC(NC(=O)CCC(=O)O)C(=O)NC(Cc3ccccc3)C(=O)NC(C)C(=O)NC(CC(C)CC)C(=O)NC(C(=O)NC(Cc3ccccc3)C(=O)N3CCCC3C(=O)N2)C(C)OC(=O)C(CO)NC(=O)C(C(O)COC)N(C)C(=O)C(C(C)C)NC(=O)C(CC(C)CC)NC1=O (stereo not given)
Reply | active

Ask | Please state the recorded outcome for this molecule: CCCCCCCC(=O)SCC/C=C/[C@@H]1CC(=O)NCc2cc(ccn2)C2=N[C@@](C)(CS2)C(=O)N[C@@H](C(C)C)C(=O)O1
Reply | active

Ask | Please state the recorded outcome for this molecule: COc1cc(/C=C/c2cc(O)c(C(C)=O)c(O)c2)cc2c1O[C@]1(C)CC[C@@H](O)C(C)(C)[C@H]1C2
Reply | inactive

Ask | Please state the recorded outcome for this molecule: Cn1cnc([N+](=O)[O-])c1S(=O)(=O)Oc1cccc2ccccc12
Reply | inactive

Ask | Please state the recorded outcome for this molecule: O=C(CCc1nnc2sc(-c3ccc(Cl)cc3Cl)nn12)c1nc2ncccc2[nH]1
Reply | inactive

Ask | Please state the recorded outcome for this molecule: CCN(CC)c1ccc(-c2cc(-c3cc(OC)c(OC)c(OC)c3)nc(N3CCOCC3)c2C#N)cc1
Reply | inactive

Ask | Please state the recorded outcome for this molecule: C=C1C(=O)O[C@H]2[C@H]1CC/C(COC(=O)c1c[nH]c3ccccc13)=C\CC[C@@]1(C)O[C@@H]21
Reply | active

Ask | Please state the recorded outcome for this molecule: O=C(Nc1ccc(OCc2ccc(Cl)cc2)cc1)Nc1ccc(Cl)c(C(F)(F)F)c1
Reply | inactive

Ask | Please state the recorded outcome for this molecule: O=C1OC(O)[C@@H]2[C@H]1[C@H]1CC[C@@H]2O1 (stereo not given in full)
Reply | inactive

Ask | Please state the recorded outcome for this molecule: COc1cc(C2C(C(=O)OCc3ccccc3)=C(C)Nc3nc4ccccc4n32)cc(OC)c1OC (stereo not given)
Reply | inactive

###

Give measured TGI for each item. Keep answers brief.
test system: KM12 colon; test: NCI tumour cell line growth inhibition, 48 h
Report only the number, with the unit µM understood.

Ask | Given COc1cc(C2C(C(=O)OCc3ccccc3)=C(C)Nc3nc4ccccc4n32)cc(OC)c1OC (centres undefined) , state its recorded TGI.
Reply | 27.4

Ask | Given Cn1cc(-c2nc(N)nnc2-c2c[nH]c3ccc(F)cc23)c2cc(Br)cnc21 , state its recorded TGI.
Reply | 13.4

Ask | Given C[C@H]1[C@H](C)CC[C@]2(COC(=O)CCC(=O)NCC#CCN3CCNCC3)CC[C@]3(C)C(=CC[C@@H]4[C@@]5(C)CCCNC(C)(C)[C@@H]5CC[C@]43C)[C@H]12 , state its recorded TGI.
Reply | 34

Ask | Given O=C(Nc1ccc(OCc2ccc(Cl)cc2)cc1)Nc1ccc(Cl)c(C(F)(F)F)c1 , state its recorded TGI.
Reply | 9.32
